- measurement target: D(1B) dopamine receptor (Homo sapiens, UniProt P21918)
- Sequence (P21918 whole entry): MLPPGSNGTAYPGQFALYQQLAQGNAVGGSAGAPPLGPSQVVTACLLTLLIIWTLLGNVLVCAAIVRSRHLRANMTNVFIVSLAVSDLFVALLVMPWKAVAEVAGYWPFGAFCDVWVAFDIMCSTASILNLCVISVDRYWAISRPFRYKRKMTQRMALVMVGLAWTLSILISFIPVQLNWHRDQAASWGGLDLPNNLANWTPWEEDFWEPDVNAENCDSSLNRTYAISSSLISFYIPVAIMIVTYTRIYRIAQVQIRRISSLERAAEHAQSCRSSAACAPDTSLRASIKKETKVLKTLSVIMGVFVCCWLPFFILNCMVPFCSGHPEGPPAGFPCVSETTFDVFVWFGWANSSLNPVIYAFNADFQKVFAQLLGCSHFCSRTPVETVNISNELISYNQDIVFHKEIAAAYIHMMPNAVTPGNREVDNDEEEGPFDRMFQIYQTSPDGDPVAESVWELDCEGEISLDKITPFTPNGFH
- measurement protocol: Displacement of [3H]SCH23390 from human dopamine D5 receptor after 1 hr
pKi: −log10 of the molar value.
property name: pKi

>>> recorded_result("COc1ccc2c(c1OC)CN1CCc3cc4c(cc3[C@@H]1C2)OCO4 [CANADINE]")
7.21
>>> recorded_result("COc1c(O)ccc2c1CN1CCc3cc4c(cc3[C@@H]1C2)OCO4")
7.82
>>> recorded_result("COc1cc2c(cc1O)CCN1Cc3c(ccc(OC)c3OC)C[C@@H]21")
6.50
>>> recorded_result("COc1cc2c(cc1OC)[C@@H]1Cc3ccc(O)c(OC)c3CN1CC2")
6.62

---

- measurement target: D(3) dopamine receptor (Homo sapiens)
- measurement protocol: biochemical
- Description: Displacement of [3H]SCH23390 from human FLAG-tagged dopamine D3 receptor expressed in HEK293 cells after 1 hr
property name: Ki (nM)

>>> recorded_result("COc1cc2c(cc1O)[C@@H]1Cc3ccc(OC)c(OC)c3CN1CC2")
37.3

---

- measurement target: D(1A) dopamine receptor (Homo sapiens, UniProt P21728)
- Sequence (P21728 whole entry): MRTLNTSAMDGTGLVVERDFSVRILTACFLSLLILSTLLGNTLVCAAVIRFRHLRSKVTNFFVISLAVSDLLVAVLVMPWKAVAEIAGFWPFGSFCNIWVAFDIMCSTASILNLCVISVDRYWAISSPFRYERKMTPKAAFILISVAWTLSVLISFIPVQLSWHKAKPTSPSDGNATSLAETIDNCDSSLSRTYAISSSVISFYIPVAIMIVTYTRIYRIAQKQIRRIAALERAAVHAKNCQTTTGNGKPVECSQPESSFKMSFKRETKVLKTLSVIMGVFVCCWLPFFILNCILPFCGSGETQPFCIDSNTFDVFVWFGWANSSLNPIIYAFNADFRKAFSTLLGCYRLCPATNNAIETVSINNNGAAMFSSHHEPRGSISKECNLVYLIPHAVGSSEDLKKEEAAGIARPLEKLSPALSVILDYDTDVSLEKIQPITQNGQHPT
- measurement protocol: Displacement of [3H]SCH23390 from human 3HA-tagged dopamine D1 receptor expressed in HEK293 cells after 1 hr
- Assay type: cell-based
- applied conditions: hek293
property name: Ki (nM)

>>> recorded_result("COc1cc2c(cc1OC)[C@@H]1Cc3ccc(OC)c(OC)c3CN1CC2 [TETRAHYDROPALMATINE]")
153

---

- measurement target: D(3) dopamine receptor (Homo sapiens, UniProt P35462)
- Sequence (P35462 whole entry): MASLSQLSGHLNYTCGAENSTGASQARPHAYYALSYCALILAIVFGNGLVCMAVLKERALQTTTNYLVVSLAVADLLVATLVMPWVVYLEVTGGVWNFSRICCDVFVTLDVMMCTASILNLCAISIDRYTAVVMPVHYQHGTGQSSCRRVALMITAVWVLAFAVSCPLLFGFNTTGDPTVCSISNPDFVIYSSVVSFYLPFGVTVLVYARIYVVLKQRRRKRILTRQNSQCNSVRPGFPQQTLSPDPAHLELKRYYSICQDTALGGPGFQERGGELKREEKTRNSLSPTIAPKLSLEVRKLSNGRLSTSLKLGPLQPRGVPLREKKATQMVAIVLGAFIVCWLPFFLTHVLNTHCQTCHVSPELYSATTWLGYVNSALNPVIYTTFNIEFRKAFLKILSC
- measurement protocol: Displacement of [3H]N-methylspiperone from human dopamine D3 receptor after 1 hr
property name: Ki (nM)

>>> recorded_result("COc1ccc2c(c1OC)CN1CCc3cc4c(cc3[C@@H]1C2)OCO4")
433
>>> recorded_result("COc1cc2c(cc1O)CCN1Cc3c(ccc(OC)c3OC)C[C@@H]21")
262
>>> recorded_result("COc1cc2c(cc1OC)[C@@H]1Cc3ccc(O)c(OC)c3CN1CC2")
1710
>>> recorded_result("COc1c(O)ccc2c1CN1CCc3cc4c(cc3[C@@H]1C2)OCO4")
82.4

---

- measurement target: D(2) dopamine receptor (Homo sapiens, UniProt P14416)
- Sequence (P14416 whole entry): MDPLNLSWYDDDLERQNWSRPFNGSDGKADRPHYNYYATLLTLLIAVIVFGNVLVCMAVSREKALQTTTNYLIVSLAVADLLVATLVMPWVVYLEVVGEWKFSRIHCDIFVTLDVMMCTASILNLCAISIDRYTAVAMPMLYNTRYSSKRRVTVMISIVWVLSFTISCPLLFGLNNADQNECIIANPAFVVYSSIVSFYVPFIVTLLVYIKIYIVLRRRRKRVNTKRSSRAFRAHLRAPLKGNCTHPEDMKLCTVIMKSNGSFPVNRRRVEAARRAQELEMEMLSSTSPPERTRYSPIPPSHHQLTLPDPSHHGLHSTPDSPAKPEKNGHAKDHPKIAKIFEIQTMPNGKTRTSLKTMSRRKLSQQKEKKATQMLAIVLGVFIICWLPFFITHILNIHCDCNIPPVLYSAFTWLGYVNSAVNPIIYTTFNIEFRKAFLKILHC
- measurement protocol: Displacement of [3H]N-methylspiperone from human dopamine D2 receptor after 1 hr
property name: Ki (nM)

>>> recorded_result("COc1c(O)ccc2c1CN1CCc3cc4c(cc3[C@@H]1C2)OCO4")
49.2
>>> recorded_result("COc1ccc2c(c1OC)CN1CCc3cc4c(cc3[C@@H]1C2)OCO4")
80.2
>>> recorded_result("COc1cc2c(cc1O)CCN1Cc3c(ccc(OC)c3OC)C[C@@H]21")
42.4
>>> recorded_result("COc1cc2c(cc1OC)[C@@H]1Cc3ccc(O)c(OC)c3CN1CC2")
533
